Tested on: panel of nearly 500 cancer cell lines
assay_remarks: Cancer Cell Line Encyclopedia profiling, 3-day CellTiter-Glo
Type: cell-based
assay_context: Karpas-620
metric_name: pEC50
One number for each entry, as −log10 of the molar value.

Suppose we examine the compound CN(C)C(=O)c1cc2cnc(Nc3ccc(N4CCNCC4)cn3)nc2n1C1CCCC1 [Ribociclib] ; what pEC50 value has been reported?
7.11

====

Test system: panel of nearly 500 cancer cell lines
assay_remarks: Cancer Cell Line Encyclopedia profiling, 3-day CellTiter-Glo
Type: cell-based
assay_context: skndz (autonomic_ganglia); read-out: IC50
pIC50: −log10 of the molar value.
metric_name: pIC50

Suppose we examine the molecule CC(=O)c1c(C)c2cnc(Nc3ccc(N4CCNCC4)cn3)nc2n(C2CCCC2)c1=O ; what pIC50 value has been reported?
< 5.10
